Reported values of pEC50 for individual entries
Tested on: Rhizoctonia solani
Assay: Antifungal activity against Rhizoctonia solani infested in rice seedling incubated for 40 hr in moist chamber followed by incubation for 3 days in greenhouse conditions
Format: functional, organism-based
Please report pEC50 as the negative decimal logarithm of the molar concentration, giving only the number.

1. O=C(Nc1ccccc1)c1cccnc1Cl; 3.00
2. CC1CCc2cccc(NC(=O)c3cccnc3Cl)c21 (stereo not given); 3.20
3. CCOc1ccccc1NC(=O)c1cccnc1Cl; 2.96
4. CC1CC(C)(C)c2cccc(NC(=O)c3cccnc3Cl)c21 (stereo not given); 5.11
5. CCc1ccccc1NC(=O)c1cccnc1Cl; 2.70
6. CC1(C)OCc2cccc(NC(=O)c3cccnc3Cl)c2O1; 2.84

stdin: What value of measured pEC50 is listed for CC1CCc2c(NC(=O)c3cccnc3Cl)cccc21 (stereo not given) ?
stdout: 4.28

stdin: What value of measured pEC50 is listed for CC1Cc2cccc(NC(=O)c3cccnc3Cl)c2C1 (stereo not given) ?
stdout: 3.16

stdin: What value of measured pEC50 is listed for CCOc1cccc(NC(=O)c2cccnc2Cl)c1 ?
stdout: 4.07

stdin: What value of measured pEC50 is listed for CCc1cccc(NC(=O)c2cccnc2Cl)c1 ?
stdout: 3.80

---

Test system: Botrytis cinerea
Assay: Antifungal activity against Botryotinia fuckeliana infested in cucumber seedling cotyledons after 4 days by pot test
Type: functional
readoutType: pEC90
// no unit, no text: just the number

Look over these answered cases.
1) C=C(C)c1ccccc1NC(=O)c1cccnc1Cl; 3.78
2) CC1OCc2cccc(NC(=O)c3cccnc3Cl)c21 (stereo not given); 2.93
3) CC1OC(C)(C)c2cccc(NC(=O)c3cccnc3Cl)c21 (stereo not given); 3.93

Here is the next item to consider.
stdin: What value of measured pEC90 is listed for CCc1c(C)cccc1NC(=O)c1cccnc1Cl ?
stdout: 2.96
